Listed here: items and their measured kon.
ASSAYED_SYSTEM: T1, monomeric soluble human BTLA extracellular domain (BTLA K31-R151) (human, UniProt Q7Z6A9 31-151)
T1 construct: also called hBTLA; monomeric BTLA
T1 sequence (Q7Z6A9 31-151): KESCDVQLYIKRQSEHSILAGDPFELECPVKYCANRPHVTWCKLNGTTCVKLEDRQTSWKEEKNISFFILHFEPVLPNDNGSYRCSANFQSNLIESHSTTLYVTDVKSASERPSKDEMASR
ASSAY_DETAILS: SPR 37C, mAb captured, BTLA ECD analyte;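 note: Anti-BTLA mouse antibodies captured on a sensor chip via polyclonal anti-mouse IgG, isotype control antibody in reference channel, rates fitted after reference and blank subtraction to derive Kd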

| BINDER | kon / M⁻¹ s⁻¹ |
| --- | --- |
| 21C7 (antibody, IgG1, V domains shown, mIgG1) VH: QIQLQQSGPELVKPGASVKISCKASGYAFSSSWMNWVKKRPGKGLEWIGRIYPGDGDANYNGKFKGKATLTADKSSSTAYMQLSSLTSEDSAVYFCAGEGHYYGSGYRWYLDVWGTGTTVTVSS VL: DIQMTQSPASLSVSVGETVTITCRASENIYSNLAWYQQKQGKSPQLLVYAATNLADGVPSRFSGSGSGTQYSLKINSLQSEDFGSYYCQHFRGAPFTFGSGTKLEIK | 930000 |
| 12F11 (antibody, IgG1, V domains shown, mIgG1) VH: EVQLQQSGPELVKPGASVKISCKASGYTFTDYYMNWVKQSHGKSLEWIGDINPNNGGTSYNQKFKGKATLTVDKSSSTAYMELRSLTSEDSAVYYCARWRQLRSDYWGQGTTLTVSS VL: DIQMTQSPASQSASLGESVTITCLASQTIGTWLAWYQQKPGKSPQLLIYAATSLADGVPSRFSGSGSGTKFSFKISSLQAEDFVSYYCQQLYSTPLTFGAGTKLELK | 215000 |
| 7A1 (antibody, IgG1, V domains shown, mIgG1) VH: QVQLQQSGPELVKPGASVKISCKASGYAFSSSWMNWVKQRPGKGLEWIGRIYPGDGDTNYNGKFKGKATLTADKSSSTAYMQLSSLTSEDSAVYFCARRGYGYLAYWGQGTLVTVSA VL: DIVMTQSHKFMSTSVGDRVSITCKASQDVSTAVAWYQQKPGQSPKLLIYSASYRYTGVPDRFTGSGSGTDFTFTISSVQAEDLAVYYCQQHYSTPWTFGGGTKLEIK | 413000 |
| 16F10 (antibody, IgG1, V domains shown, mIgG1) VH: DVQLQESGPGLVKPSQSLSLTCSVTGYSITSGYYWNWIRQFPGNKLEWMGYISYDGSNNYNPSLKNRISITRDTSKNQFFLKLNSVTTEDTATYYCASIYGNYYAMDYWGQGTSVTVSS VL: QIVLTQSPAIMSASPGEKVTMTCSASSSVSYMHWYQQKSGTSPKRWIYDTSKLASGVPARFSGSGSGTSYSLTISSMEAEDAATYYCQQWSSNPPTFGSGTKLEIK | 581000 |
